Target: T1, extracellular domain of canine IL-31RA fused to murine IgG2A Fc (canine)
T1 construct: also called Canine IL-31RA-murine IgG2A Fc; Canine IL-31RA-mFc
T1 chain: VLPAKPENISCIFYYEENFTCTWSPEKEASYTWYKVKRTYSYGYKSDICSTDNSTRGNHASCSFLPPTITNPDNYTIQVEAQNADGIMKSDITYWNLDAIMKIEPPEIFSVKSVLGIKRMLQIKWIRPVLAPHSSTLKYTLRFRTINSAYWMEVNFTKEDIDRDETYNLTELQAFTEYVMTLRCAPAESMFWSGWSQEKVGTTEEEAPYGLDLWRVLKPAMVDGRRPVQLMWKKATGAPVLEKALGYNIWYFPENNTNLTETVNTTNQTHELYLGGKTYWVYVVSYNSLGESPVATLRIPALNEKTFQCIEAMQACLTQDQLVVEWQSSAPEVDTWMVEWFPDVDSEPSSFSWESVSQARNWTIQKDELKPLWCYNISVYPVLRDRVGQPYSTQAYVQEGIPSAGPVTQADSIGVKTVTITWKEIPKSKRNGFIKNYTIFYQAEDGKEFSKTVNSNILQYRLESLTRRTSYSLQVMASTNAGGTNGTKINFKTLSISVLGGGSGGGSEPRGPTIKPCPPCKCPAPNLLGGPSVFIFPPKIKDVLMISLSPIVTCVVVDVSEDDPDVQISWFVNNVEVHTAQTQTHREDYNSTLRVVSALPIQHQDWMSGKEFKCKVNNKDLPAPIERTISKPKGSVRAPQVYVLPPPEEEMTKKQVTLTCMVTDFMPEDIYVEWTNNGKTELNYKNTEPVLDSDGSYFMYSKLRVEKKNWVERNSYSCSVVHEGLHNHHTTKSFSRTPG
Experiment: SPR Biacore T200, antibody captured on anti-dog H+L chip, canine IL-31RA-mFc as analyte; relative affinity scale: *** 3 pM-100 pM, ** 101 pM-1 nM, * 1.1 nM-20 nM (avidity)
measurementType: relative affinity (apparent KD by SPR)

Observe how each entry below is paired with its result.
109-49 heavy chain M118L variant with wild-type light chain (antibody, V domains shown, Canine IgGB/kappa; signal peptides left out; also called M118L / Wild-type) VH: EVQLVESGGDLVKPGGSLRLSCVASGFTFDDYGMSWVRQAPGKGLQWVSGINWAGGTIGYADAVKGRFTISRDNARNTVYLQMNSLRAEDTAVYYCARESPLRLGDLGGDYFYYYYYLDVWGQGTLVTVSS VL: EVVMIQTPLSLSVSPGEPASISCRASQSVSSRYLVWYLQKPGQSPQLLIYGTSSRATGVSDRFSGSGSGTDFTLRISRVEAEDVGVYYCQQYDNSPRTFGQGTKVEIKR
1.1 to 20 nM
109-49 heavy chain W53F variant with wild-type light chain (antibody, V domains shown, Canine IgGB/kappa; signal peptides left out; also called W53F / Wild-type) VH: EVQLVESGGDLVKPGGSLRLSCVASGFTFDDYGMSWVRQAPGKGLQWVSGINFAGGTIGYADAVKGRFTISRDNARNTVYLQMNSLRAEDTAVYYCARESPLRLGDLGGDYFYYYYYMDVWGQGTLVTVSS VL: EVVMIQTPLSLSVSPGEPASISCRASQSVSSRYLVWYLQKPGQSPQLLIYGTSSRATGVSDRFSGSGSGTDFTLRISRVEAEDVGVYYCQQYDNSPRTFGQGTKVEIKR
1.1 to 20 nM

# input for lookup
Which relative affinity (apparent KD by SPR) value belongs to 109-49 wild-type heavy chain with light chain N94Q variant (antibody, V domains shown, Canine IgGB/kappa; signal peptides left out; also called Wild-type / N94Q) VH: EVQLVESGGDLVKPGGSLRLSCVASGFTFDDYGMSWVRQAPGKGLQWVSGINWAGGTIGYADAVKGRFTISRDNARNTVYLQMNSLRAEDTAVYYCARESPLRLGDLGGDYFYYYYYMDVWGQGTLVTVSS VL: EVVMIQTPLSLSVSPGEPASISCRASQSVSSRYLVWYLQKPGQSPQLLIYGTSSRATGVSDRFSGSGSGTDFTLRISRVEAEDVGVYYCQQYDQSPRTFGQGTKVEIKR ?
0.101 to 1 nM
